Ref: the NIST ThermoML archive (doi:10.1021/je060170c)

# COND: 288.15 K; 101 kPa; Liquid

- COMPOUND: "Cc1ccccc1 [toluene]"
  speed of sound [m/s]: 1350
- COMPOUND: "Cc1ccccc1C [1,2-dimethylbenzene]"
  speed of sound [m/s]: 1390.3
- COMPOUND: "Cc1cccc(C)c1 [1,3-dimethylbenzene]"
  speed of sound [m/s]: 1362.6
- COMPOUND: "Cc1ccc(C)cc1 [1,4-dimethylbenzene]"
  speed of sound [m/s]: 1352
- COMPOUND: "COc1ccccc1 [anisole]"
  speed of sound [m/s]: 1449.1
- COMPOUND: "Cc1cc(C)cc(C)c1 [1,3,5-trimethylbenzene]"
  speed of sound [m/s]: 1377.5
- COMPOUND: "c1ccccc1 [benzene]"
  speed of sound [m/s]: 1347.2
